- Experimental system: human Gal-1 (hGal-1)
- Sequence (P09382 2-135 limits assumed): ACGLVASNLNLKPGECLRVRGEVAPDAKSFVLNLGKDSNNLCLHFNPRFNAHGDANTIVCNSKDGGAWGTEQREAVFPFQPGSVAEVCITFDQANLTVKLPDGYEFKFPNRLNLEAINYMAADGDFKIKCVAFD
- Method summary: Competitive binding assay: binding of biotinylated hGal-1 to microplate-adsorbed asialofetuin (ASF)
- Test parameters: Activities on hGal-1; mean values of several measurements
Recorded endpoint: IC50 (µM)

Molecule	Experimental system	Recorded endpoint	Unit info	Reading
CO[C@@H]1[C@@H](n2cc(-c3cc(F)c(F)c(F)c3)nn2)[C@@H](O)[C@@H](CO)O[C@@H]1CN1CC(=O)N(C2CCCCC2)C1 [Example 6.09]	human Gal-1 (hGal-1)	IC50	µM	6.72
CO[C@@H]1[C@@H](n2cc(-c3cc(F)c(F)c(F)c3)nn2)[C@@H](O)[C@@H](CO)O[C@@H]1Cn1cnc(C(C)(C)C)c1 [Example 6.04]	human Gal-1 (hGal-1)	IC50	µM	2.38
CO[C@@H]1[C@@H](n2cc(-c3cc(F)c(F)c(F)c3)nn2)[C@@H](O)[C@@H](CO)O[C@@H]1C[C@@H]1CN(C2CCN(C(=O)OC(C)(C)C)CC2)C(=O)O1 [Example 5.15]	human Gal-1 (hGal-1)	IC50	µM	0.21
CC(C)(C)OC(=O)N1CCC(C2=NOC(C[C@H]3O[C@H](CO)[C@H](O)[C@H](n4cc(-c5ccc(F)cn5)nn4)[C@H]3O)C2)CC1 (some centres unmarked) [Ex 1.104]	human Gal-1 (hGal-1)	IC50	µM	0.45
CCOC(=O)N1CCC(c2cc(C[C@H]3O[C@H](CO)[C@H](O)[C@H](n4cc(-c5ccc(Cl)c(F)c5)nn4)[C@H]3OC)no2)CC1 [Ex 1.149]	human Gal-1 (hGal-1)	IC50	µM	0.47

a: CO[C@@H]1[C@@H](n2cc(-c3cc(F)c(F)c(F)c3)nn2)[C@@H](O)[C@@H](CO)O[C@@H]1CN1CC(=O)N(C2CCN(C(C)=O)CC2)C1 [Example 6.08]
b: CO[C@@H]1[C@@H](n2cc(-c3cc(F)c(F)c(F)c3)nn2)[C@@H](O)[C@@H](CO)O[C@@H]1Cc1cc(C2CCN(CCC(C)(C)C)CC2)on1 [Example 3.42]
IN: Return label of the item with the larger IC50. Candidates: a , b . Use the label to indicate which entry you chose.
OUT: b
(b: 5.9 µM, a: 0.073 µM)

P: CO[C@@H]1[C@@H](n2cc(-c3ccc(Cl)c(F)c3F)nn2)[C@@H](O)[C@@H](CO)O[C@@H]1Cc1cc(C(C)(C)C)on1 [Ex 1.190]
Q: COc1cccc(-c2cn([C@H]3[C@@H](O)[C@@H](CO)O[C@H](CC4CC(C5CCN(C(=O)OC(C)(C)C)CC5)=NO4)[C@@H]3O)nn2)c1 (some centres unmarked) [Ex 1.300]
R: CO[C@@H]1[C@@H](n2cc(-c3cc(F)c(F)c(F)c3)nn2)[C@@H](O)[C@@H](CO)O[C@@H]1Cc1cc(C2(C)CC2)no1 [Ex 1.215]
S: CC(=O)O[C@@H]1[C@@H](n2cc(-c3ccc(C)c(F)c3F)nn2)[C@@H](O)[C@@H](CO)O[C@@H]1Cc1cc(C(C)(C)C)on1 [Ex 1.204]
T: CC(C)(C)OC(=O)N1CCC(C2=NOC(C[C@H]3O[C@H](CO)[C@H](O)[C@H](n4cc(-c5c(F)cccc5F)nn4)[C@H]3O)C2)CC1 (some centres unmarked) [Ex 1.298]
IN: Output the entries ranked by IC50 from maximum down to minimum. // respond by listing labels in the order requested
OUT: S, P, Q, T, R
(S: 17.3 µM, P: 4.61 µM, Q: 2.27 µM, T: 0.99 µM, R: 0.61 µM)

1: CC(=O)O[C@@H]1[C@@H](n2cc(-c3cc(F)c(F)c(F)c3)nn2)[C@@H](O)[C@@H](CO)O[C@@H]1Cc1cc(C2CCN(C(C)=O)CC2)on1 [Example 3.22]
2: CO[C@@H]1[C@@H](n2cc(-c3cc(F)c(F)c(F)c3)nn2)[C@@H](O)[C@@H](CO)O[C@@H]1CC1CC(C2CCNCC2)=NO1 (mixture of isomers) [Example 3.04]
IN: Return label of the item with the larger IC50. Candidates: 1 , 2 . Use the label to indicate which entry you chose.
OUT: 2

A: CO[C@@H]1[C@@H](n2cc(-c3cc(F)c(F)c(F)c3)nn2)[C@@H](O)[C@@H](CO)O[C@@H]1Cc1cc(C2(O)CCOCC2)on1 [Ex 1.75]
B: CCOC(=O)N1CCC(C)(c2cc(C[C@H]3O[C@H](CO)[C@H](O)[C@H](n4cc(-c5ccc(C)c(F)c5F)nn4)[C@H]3OC)on2)CC1 [Ex 1.325]
IN: Return label of the item with the larger IC50. Candidates: A , B . Use the label to indicate which entry you chose.
OUT: A
